Reported IC50 values follow for various compounds
Biological target: KRAS G13D (Homo sapiens, UniProt P01116+P62937, G13D)
Sequence (P01116 1-169 isoform P01116-2 G13D limits assumed, one chain of several): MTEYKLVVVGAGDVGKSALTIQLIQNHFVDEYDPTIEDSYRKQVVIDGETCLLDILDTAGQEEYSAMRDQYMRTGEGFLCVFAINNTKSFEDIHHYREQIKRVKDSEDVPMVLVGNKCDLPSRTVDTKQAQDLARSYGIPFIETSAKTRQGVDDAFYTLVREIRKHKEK
Experiment: Disruption of BRAF RBD interaction with Ras (FRET / MOA assay, with Cyclophilin A)
Format: biochemical
Conditions: KRAS G13D; read-out: KRAS G13D FRET data IC50

CCn1c(-c2cccnc2[C@H](C)OC)c2c3cc(ccc31)-c1csc(n1)C[C@H](NC(=O)[C@H](C(C)C)N(C)C(=O)N1CC[C@]3(CCN(C)C3=O)C1)C(=O)N1CCC[C@H](N1)C(=O)OCC(C)(C)C2 (single isomer, unassigned) ... 1000 to 10000 nM

For the next question, use this compound.
The compound CCn1c(-c2cccnc2[C@H](C)OC)c2c3cc(ccc31)-c1cc(O)cc(c1)C[C@H](NC(=O)[C@H](C(C)C)N(C)C(=O)OC1CC1)C(=O)N1CCC[C@H](N1)C(=O)OCC(C)(C)C2 showed IC50 equal to 100 to 1000 nM

###

Target: KRAS Q61H (Homo sapiens, UniProt P01116+P62937, Q61H)
Sequence (P01116 1-169 isoform P01116-2 Q61H limits assumed): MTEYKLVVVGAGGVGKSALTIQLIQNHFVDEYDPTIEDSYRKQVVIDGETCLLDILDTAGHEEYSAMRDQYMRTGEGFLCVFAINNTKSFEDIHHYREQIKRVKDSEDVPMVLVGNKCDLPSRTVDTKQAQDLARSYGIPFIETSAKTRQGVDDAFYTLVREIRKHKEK
Sequence (P62937 whole entry): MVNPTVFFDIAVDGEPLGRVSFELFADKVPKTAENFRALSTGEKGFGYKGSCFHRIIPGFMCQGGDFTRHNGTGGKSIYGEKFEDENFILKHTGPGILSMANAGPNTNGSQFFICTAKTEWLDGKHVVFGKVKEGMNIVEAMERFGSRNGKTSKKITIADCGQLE
Test: Ras-Raf disruption / FRET / MOA assay (BRAF RBD)
Type: biochemical
pIC50: −log10 of the molar value.
# Lookup of reported pIC50 keyed by entry

CCn1c(-c2cccnc2[C@H](C)OC)c2c3cc(ccc31)-c1cc(O)cc(c1)C[C@H](NC(=O)[C@H](C1CCCC1)N(C)C(=O)CN(C)C(=O)[C@@H]1N[C@@H]1C1CC1)C(=O)N1CCC[C@H](N1)C(=O)OCC(C)(C)C2 ... 7.00 to 8.00
CCn1c(-c2cccnc2[C@H](C)OC)c2c3cc(ccc31)-c1cc(O)cc(c1)C[C@H](NC(=O)[C@H](C1CCCC1)N(C)C(=O)CN(C)C(=O)[C@H]1[C@@H](C3CC3)N1CCCOC)C(=O)N1CCC[C@H](N1)C(=O)OCC(C)(C)C2 (stereo partly shown) ... 7.00 to 8.00
CCn1c(-c2cccnc2[C@H](C)OC)c2c3cc(ccc31)-c1cc(O)cc(c1)C[C@H](NC(=O)[C@H](C(C)C)N(C)C(=O)C13CCC(CC1)N3C(=O)[C@H]1CN1)C(=O)N1CCC[C@H](N1)C(=O)OCC(C)(C)C2 ... 7.00 to 8.00

Lab entry: KRAS Q61H (Homo sapiens, UniProt P01116+P62937, Q61H) assay, compound CCn1c(-c2cccnc2[C@H](C)OC)c2c3cc(ccc31)-c1cc(O)cc(c1)C[C@H](NC(=O)[C@H](C(C)C)N(C)C(=O)CN(C)C(=O)[C@H]1N[C@H]1C(F)(F)F)C(=O)N1CCC[C@H](N1)C(=O)OCC(C)(C)C2 , pIC50 = 7.00 to 8.00

###

Listing of recorded IC50 by entry.
Target: NRAS WT (Homo sapiens, UniProt P01111+P62937)
Sequence (P01111 whole entry): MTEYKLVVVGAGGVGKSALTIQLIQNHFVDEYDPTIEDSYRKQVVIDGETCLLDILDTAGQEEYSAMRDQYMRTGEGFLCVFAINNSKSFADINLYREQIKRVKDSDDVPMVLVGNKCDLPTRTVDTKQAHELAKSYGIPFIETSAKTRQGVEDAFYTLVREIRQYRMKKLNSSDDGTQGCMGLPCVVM
Sequence (P62937 whole entry): as the sequence (P62937 whole entry) above
Experiment: Disruption of BRAF RBD interaction with Ras (FRET / MOA assay, with Cyclophilin A)
Assay type: biochemical
Conditions: NRAS WT; read-out: NRAS WT FRET data IC50

CCn1c(-c2cccnc2[C@H](C)OC)c2c3cc(ccc31)-c1cc(O)cc(c1)C[C@H](NC(=O)C13CCCC1C3(F)F)C(=O)N1CCC[C@H](N1)C(=O)OCC(C)(C)C2 (some centres unmarked) ... 1000 to 10000 nM

Let us move to another entry and its IC50.
The reported IC50 of the compound CCn1c(-c2cccnc2[C@H](C)OC)c2c3cc(ccc31)-c1csc(n1)C[C@H](NC(=O)[C@H](C(C)C)N(C)C(=O)N1CC([C@H](C)OC)C1)C(=O)N1CCC[C@H](N1)C(=O)OCC(C)(C)C2 (atropisomer, axis not shown) was 10 to 100 nM

###

Biological target: KRAS Q61H (Homo sapiens, UniProt P01116+P62937, Q61H)
Assay: Disruption of BRAF RBD interaction with Ras (FRET / MOA assay, with Cyclophilin A)
Format: biochemical
Conditions: KRAS Q61H; read-out: KRAS Q61H FRET data IC50
METRIC NAME: IC50

Use the examples below as a reference point.
CCn1c(-c2cccnc2[C@H](C)OC)c2c3cc(ccc31)-c1csc(n1)C[C@H](NC(=O)[C@H](C(C)C)N(C)C(=O)N1CCC3(CCN(C)CC3)C1)C(=O)N1CCC[C@H](N1)C(=O)OCC(C)(C)C2 (atropisomer, axis not shown) ... 10 to 100 nM
CCn1c(-c2cccnc2[C@H](C)OC)c2c3cc(ccc31)-c1cccc(c1)C[C@H](NC(=O)[C@H](C(C)C)N(C)C(=O)N1CCC13CN(C(=O)C#CC(C)(C)N(C)C)C3)C(=O)N1CCC[C@H](N1)C(=O)OCC(C)(C)C2 (atropisomer, axis not shown) ... 100 to 1000 nM
CCn1c(-c2cccnc2[C@H](C)OC)c2c3cc(ccc31)-c1csc(n1)C[C@H](NC(=O)[C@H]1C[C@@H]1C)C(=O)N1CCC[C@H](N1)C(=O)OCC(C)(C)C2 ... 100 to 1000 nM
CCn1c(-c2cccnc2[C@H](C)OC)c2c3cc(ccc31)-c1csc(n1)C[C@H](NC(=O)[C@H](C(C)C)N(C)C(=O)N1CCCC13CCOCC3)C(=O)N1CCC[C@H](N1)C(=O)OCC(C)(C)C2 (atropisomer, axis not shown) ... 10 to 100 nM
CCn1c(-c2cccnc2[C@H](C)OC)c2c3cc(ccc31)-c1csc(n1)C[C@H](NC(=O)[C@H](C(C)C)N(C)C(=O)N1CC3CCN(C)CC31)C(=O)N1CCC[C@H](N1)C(=O)OCC(C)(C)C2 (stereo partly shown) ... 1000 to 10000 nM
CCn1c(-c2cccnc2[C@H](C)OC)c2c3cc(ccc31)-c1cc(O)cc(c1)C[C@H](NC(=O)[C@@H]1[C@H](C)CCN1C(C)=O)C(=O)N1CCC[C@H](N1)C(=O)OCC(C)(C)C2 ... 100 to 1000 nM
CCn1c(-c2cccnc2[C@H](C)OC)c2c3cc(ccc31)-c1csc(n1)C[C@H](NC(=O)[C@H](C(C)C)N(C)C(=O)N1CCN3CCOC[C@H]3C1)C(=O)N1CCC[C@H](N1)C(=O)OCC(C)(C)C2 ... 100 to 1000 nM
CCn1c(-c2cc(N3CCN(C)CC3)cnc2[C@H](C)OC)c2c3cc(ccc31)-c1csc(n1)C[C@H](NC(=O)[C@H](C1CCCC1)N(C)C(=O)N1CCC1)C(=O)N1CCC[C@H](N1)C(=O)OCC(C)(C)C2 (atropisomer, axis not shown) ... 10 to 100 nM

Reported IC50 of CCn1c(-c2cccnc2[C@H](C)OC)c2c3cc(ccc31)-c1csc(n1)C[C@H](NC(=O)[C@H](C(C)C)N(C)C(=O)N1CC3(CC(N4CCOCC4)C3)C1)C(=O)N1CCC[C@H](N1)C(=O)OCC(C)(C)C2 (atropisomer, axis not shown) : 100 to 1000 nM

The molecule listed as CCn1c(-c2cccnc2[C@H](C)OC)c2c3cc(ccc31)-c1csc(n1)C[C@H](NC(=O)[C@H](C(C)C)N(C)C(=O)N1CC(C3CN(C)C3)C1)C(=O)N1CCC[C@H](N1)C(=O)OCC(C)(C)C2 (atropisomer, axis not shown) shows IC50 equal to 10 to 100 nM

Entry CCn1c(-c2cccnc2[C@H](C)OC)c2c3cc(ccc31)-c1csc(n1)C[C@H](NC(=O)[C@H](C(C)C)N(C)C(=O)N1CC3(CCCO3)C1)C(=O)N1CCC[C@H](N1)C(=O)OCC(C)(C)C2 (atropisomer, axis not shown) , IC50 reported as 100 to 1000 nM

Summary for this molecule, C=CC(=O)N1CCOC2(CCN(C(=O)N(C)[C@H](C(=O)N[C@H]3Cc4nc(n(C)n4)-c4ccc5c(c4)c(c(-c4cccnc4[C@H](C)OC)n5CC(F)(F)F)CC(C)(C)COC(=O)C4CCCN(N4)C3=O)C(C)C)CC2)C1 (stereo partly shown) : IC50 is 10 to 100 nM

GET /value?item= CCn1c(-c2cccnc2[C@H](C)OC)c2c3cc(ccc31)-c1csc(n1)C[C@H](NC(=O)[C@H](C(C)C)N(C)C(=O)N1CCCC13COC3)C(=O)N1CCC[C@H](N1)C(=O)OCC(C)(C)C2 (atropisomer, axis not shown) &field=IC50 returns 10 to 100 nM

Measured IC50 of CCn1c(-c2cccnc2[C@H](C)OC)c2c3cc(ccc31)-c1csc(n1)C[C@H](NC(=O)[C@H](C(C)C)N(C)C(=O)[C@H]1[C@@H]3CNC[C@@H]31)C(=O)N1CCC[C@H](N1)C(=O)OCC(C)(C)C2 (atropisomer, axis not shown) : 1000 to 10000 nM

Value of IC50 reported for the molecule C=CC(=O)N1CC[C@]2(C1)OCN(C(=O)N(C)[C@H](C(=O)N[C@H]1Cc3cccc(n3)-c3ccc4c(c3)c(c(-c3cccnc3[C@H](C)OC)n4CC)CC(C)(C)COC(=O)[C@@H]3CCCN(N3)C1=O)C(C)C)C2=O (atropisomer, axis not shown) is 1000 to 10000 nM

Notebook: CCn1c(-c2cccnc2[C@H](C)OC)c2c3cc(ccc31)-c1csc(n1)C[C@H](NC(=O)[C@H](C(C)C)N(C)C(=O)N1CC([C@H](C)CO)C1)C(=O)N1CCC[C@H](N1)C(=O)OCC(C)(C)C2 (atropisomer, axis not shown) , IC50 read as 10 to 100 nM
